Data provenance is ChEMBL document CHEMBL4184331.

- assay.protocol: physchem
- Description: Dissociation constant, pKa of the compound
# pKa >= 7 gives Condition met, anything below gives Condition not met

Task: Is the recorded value of pKa equal to or greater than 7 for this molecule? "C[C@]12C=CC(=O)C=C1[C@@H](F)C[C@H]1[C@@H]3C[C@H]4CN(c5cccc(Cl)c5)C[C@@]4(C(=O)CO)[C@@]3(C)C[C@H](O)[C@@]12F"
Output: Condition not met

Task: Entry "CN1C[C@@H]2C[C@H]3[C@@H]4C[C@H](F)C5=CC(=O)C=C[C@]5(C)[C@@]4(F)[C@@H](O)C[C@]3(C)[C@]2(C(=O)CO)C1" please
Output: Condition met

Task: Same read-out for "C[C@]12C=CC(=O)C=C1[C@@H](F)C[C@H]1[C@@H]3C[C@H]4CN(Cc5cccnc5)C[C@@]4(C(=O)CO)[C@@]3(C)C[C@H](O)[C@@]12F" ?
Output: Condition not met

Task: Next up: "C[C@]12C=CC(=O)C=C1[C@@H](F)C[C@H]1[C@@H]3C[C@H]4CN(c5ccccc5)C[C@@]4(C(=O)CF)[C@@]3(C)C[C@H](O)[C@@]12F"
Output: Condition met

Task: Quick one: "C[C@]12C=CC(=O)C=C1[C@@H](F)C[C@H]1[C@@H]3C[C@H]4CN(Cc5cccc(Cl)c5)C[C@@]4(C(=O)OCF)[C@@]3(C)C[C@H](O)[C@@]12F"
Output: Condition not met

Task: What about "C[C@]12C=CC(=O)C=C1[C@@H](F)C[C@H]1[C@@H]3C[C@H]4CN(c5ccc(Cl)cc5)C[C@@]4(C(=O)CO)[C@@]3(C)C[C@H](O)[C@@]12F" ?
Output: Condition not met

Task: # repeat for "C[C@]12C=CC(=O)C=C1[C@@H](F)C[C@H]1[C@@H]3C[C@H]4CN(c5ccccc5)C[C@@]4(C(=O)CO)[C@@]3(C)C[C@H](O)[C@@]12F"
Output: Condition met

Task: Request: "CN(C)C(=O)[C@@]12CN(Cc3ccccc3)C[C@@H]1C[C@H]1[C@@H]3C[C@H](F)C4=CC(=O)C=C[C@]4(C)[C@@]3(F)[C@@H](O)C[C@@]12C"
Output: Condition met
